Source listed as ChEMBL document CHEMBL1142527.

Below, each entry is listed with its recorded D.
- System: HT-29
- protocol details: Drug diffusion coefficient in human HT-29 multicellular layer under 95% oxygen by liquid scintillation counting
- Assay type: ADME, cell-based
Respond with the bare value in cm²/s.

compound: CN(C)CCNc1n[n+]([O-])c2cc3c(cc2[n+]1[O-])CCO3
recorded metric: D
units text: cm²/s
readout value: 4.3e-07
--
compound: COc1ccc2c(c1)[n+]([O-])c(NCCN(C)C)n[n+]2[O-]
recorded metric: D
units text: cm²/s
readout value: 2.3e-07
--
compound: CN(C)CCNc1n[n+]([O-])c2c3c(ccc2[n+]1[O-])CCC3
recorded metric: D
units text: cm²/s
readout value: 8.4e-07
--
compound: CN(C)CCNc1n[n+]([O-])c2cc3c(cc2[n+]1[O-])CCC3
recorded metric: D
units text: cm²/s
readout value: 5.9e-07
--
compound: CCCN(CCC)CCNc1n[n+]([O-])c2cc3c(cc2[n+]1[O-])CCC3
recorded metric: D
units text: cm²/s
readout value: 1.92e-06

Which D value is on record for [O-][n+]1nc(NCCN2CCCCC2)[n+]([O-])c2cc3c(cc21)CCC3 ?
1.19e-06

// query D value for entry Nc1n[n+]([O-])c2ccccc2[n+]1[O-] [TIRAPAZAMINE]
4.04e-07
